The measured values listed here are drawn from the domain aggregation screens of Martell et al. (2025).

Test: soluble fraction after stress (log2 fold change); higher = more stays soluble; pooled small domains, quantitative proteomics
Details: stress: pH 4
property: soluble fraction (log2)
Answers are plain numbers.

Worked examples follow.
sequenceinput=HMSTSEQVYTTDKVNVRREADTSSEKLGSLEKGTAISRTGTEGEWSVVNYGGVTGYIKTEFLTTEQPQ resultvalue=0.224
sequenceinput=HMVVTRVKAIDVVNIRKSDSETADKLGKAAVGDEFDLLEKKGNGWSKISYEGGEAYIKSEFLEPSE resultvalue=0.034
sequenceinput=HMKEVDERPWGKYEVLLDAPDVKVKRITVNPGQRLSYQYHEKRAEVWTVVSGILTIILEDDKLFRG resultvalue=0.0694
sequenceinput=HMNENNFIVAMRERLAQFIETSGTSQSRIAKELGVSKSTVSLFLGGTYGGNNQELARNLEQLLSMGAARR resultvalue=0.212
sequenceinput=HMGMESFWNRVANLLNTSTVVELAQILDVKRSTLSSWIHSDRRPPMEVLLKITRLTGVDIHRLE resultvalue=-0.576

Go through the items and report each one's soluble fraction (log2).
1. HMRERLPFGFAQSKKVVLLSTESDTPKVLSVNWPSLDLYAELKRVIGRAFLLEIVSEEEFQAQVSDAYQRD
2. HMSLREKNKARTRTAILNAARDLAKQGQWDAITTRQIADAAGVSYQTLYNYYPSKASILVEMLL
3. HMQETPAMLAMKELPTEDEQRIYMMLQEDYDSVLLVKTIRNAFSQNPQLTRQQLLPIILTWLMT
4. HMGIFAQTTKWRDIYTVKKKDTIFGIANKYGLSLPELMEANPEMKQEGYMLQKGTTLFIPFASD
5. HMETVMYLRQIKRPQGIYLAIQESYYDSSKKQSRTRTIESIGYLDNLRKEYEDPIAFFSQKAAAMTSEKKK
6. HMSFFNGNQMKILRKKLQLNQEEMGEKLGIKKSYVSQLENNRKEITEEIDQILQELEQEYQDKM
7. HMSVTRELMLVKVKVTPEQRAGVSAIVDIFRANIIDVGKESMIIELTGNKSKLEAFIDLLDGYEILELART

A:
1. -1.48
2. -0.219
3. -1.08
4. -0.0354
5. -0.177
6. -0.0582
7. -0.865

Go through the items and report each one's soluble fraction (log2).
1. HMSDQIQQIAERIAGLRDIAGYSVEELARELGISAEEYKRYESGEVDIPIGFLYKLANKYNVELTAILT
2. HMVSFSIDEALVSAVKGPRSANVMSIQRQFLVRLSVERDGRVTITGANSKSVQQAREAVEAAVEEAKLHP
3. HMKNDNIHMMASKINGIALEVGVLTPGMHPKNDLSEGEVGYIVTNLKTTREAKVGDTVTLAKKPAATPLPG
4. HMGNLIIFYDAQTGSAPLLKAVKTSGATLVYEYKNLHGIAIRPSSKTSIEDAIAYFKKVNGVLSVE

A:
1: -1.02; 2: 0.238; 3: 0.187; 4: 0.0783

Go through the items and report each one's soluble fraction (log2).
1. HMDEFAGSAKPLADGAAPAGYDVKGNKDSMKYHEPGGRWYDATVAEVWFKTAADAEAAGFVKAGA
2. HMWSAREQVVNSLREAILTSELKAGERLVLSDLSARLGVSVTPIREALQSLEREGLVQLMPHQEAVVV
3. HMTGMEAAEFGKRIMKLRKQKGMTQSKLAEQINVSNKAISRWETGEGFPEITLLKPLAKALGTTVDELFGE
4. HMKTFSTRLIALREAIGVNQSELARRVGVTPQAVQKWESGANGPRGKRLEKLASELRSTVGYLVSGEGDG
5. HMSIQREIILEVIKNNRTHPTAEEIYILVTKKEPKISRSTVYRNINILVEKGIIEKITIATGPDRYDY
6. HMEYSKSIKRLREDKNLTVEELAKRLSLDVEEIQKAEDGEDVDQKTLEAIARYFGVQYDSLVEGTAKSK
7. HMPGVTTQLHRLNGTEETYIIKRGDGVLEIDGEKSELQLGDAIIIPAGASQKISNIGDEDLE
8. HMKGSIFLDEATKMVDNSALKSLNTFLEEYARETNNQIFLISHQETPAEVTQIKLKKVGGETSYE

A:
1. -0.266
2. -0.409
3. -0.271
4. 0.0382
5. -0.126
6. -0.258
7. -0.229
8. -0.0644

Go through the items and report each one's soluble fraction (log2).
1. HMQTPVTVGDTMPNLIGTPKRLLLELLNRTDITVKLTGDGYVTAQSPAAGTPIAKGMIIELSL
2. HMENPPISVVIPPSFRGQRIDKALGSLIGDYSRSKIQQWLQSGLVQSAGEPLLPKYTVLGNEQILIAVPS
3. HMSQPYFELAAADMEALRNALSTIREIESVVLSGKIFHVEVREDLDPGTMNKLAFERGITLTHLVKKKN

A:
[0.19, 0.03, -1.06]

Go through the items and report each one's soluble fraction (log2).
1. HMFPDLTEDEQLIVDVLQRTGDLQINSLIVEANIPVNKMSEILFELEMKGVIRTLAGGVYQLL
2. HMPATIEGIRLYLSSGLIKGVGEEMASRIVKAFGTDTIRVLDEEPERLLKVRGVGKKSLDRIRTSWAEH
3. HMKGQLVVFPNPASSNDMVRFNKNISFSIFDITGHLVDTKRNVNELSVGNLEAGTYILRTEQGDVLRMVI

A:
1: -1.84; 2: -0.585; 3: -0.904

Q: Could you share which soluble fraction (log2) value was measured for `HMQVSDTNTLEQFAKEVIEANPKAVEDYHQNPLAIGFLVGQLMKVSKGSANPQTGKEILEKLL` ?
A: -0.185
